target: Aldo-keto reductase family 1 member B1 (Homo sapiens, UniProt P15121)
test details: Uncompetitive inhibition of human recombinant aldose reductase expressed in Escherichia coli BL21(DE3)pLysS assessed as dissociation constant of enzyme-inhibitor complex using L-idose as substrate by Morrison's plot analysis
pKi: −log10 of the molar value.
Parameter pKi: see the listing below.
recorded endpoint: pKi

{"columns": ["structure as smiles", "target", "recorded endpoint", "endpoint result"],
 "data": [
  ["O=C(O)CN1C(=O)/C(=C/c2cccc(OCCc3ccccc3)c2)SC1=S", "Aldo-keto reductase family 1 member B1 (Homo sapiens, UniProt P15121)", "pKi", "< 6.52"],
  ["O=C(O)CN1C(=O)S/C(=C\\c2cccc(OCCc3ccccc3)c2)C1=O", "Aldo-keto reductase family 1 member B1 (Homo sapiens, UniProt P15121)", "pKi", "< 6.30"]
]}

* * *

target: Tyrosine-protein phosphatase non-receptor type 1 (Homo sapiens, UniProt P18031)
Sequence (P18031 whole entry): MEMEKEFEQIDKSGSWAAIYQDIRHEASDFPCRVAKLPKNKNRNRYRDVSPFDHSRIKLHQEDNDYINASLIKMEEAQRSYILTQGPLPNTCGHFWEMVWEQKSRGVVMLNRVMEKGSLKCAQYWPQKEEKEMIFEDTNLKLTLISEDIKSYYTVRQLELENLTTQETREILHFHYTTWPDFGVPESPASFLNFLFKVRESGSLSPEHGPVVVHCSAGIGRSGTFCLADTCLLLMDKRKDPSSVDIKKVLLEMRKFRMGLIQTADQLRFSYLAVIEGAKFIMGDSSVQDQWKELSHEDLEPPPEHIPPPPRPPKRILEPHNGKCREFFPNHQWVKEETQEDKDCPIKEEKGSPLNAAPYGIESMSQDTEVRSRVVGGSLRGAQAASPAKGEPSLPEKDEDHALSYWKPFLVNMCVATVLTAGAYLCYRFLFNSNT
recorded endpoint: IC50 (µM)

{"columns": ["structure as smiles", "target", "endpoint result"],
 "data": [
  ["COc1cc(/C=C2\\SC(=S)N(CC(=O)O)C2=O)ccc1OCc1ccccc1", "Tyrosine-protein phosphatase non-receptor type 1 (Homo sapiens, UniProt P18031)", 54.1],
  ["O=C(O)CN1C(=O)/C(=C/c2cccc(Oc3ccccc3)c2)SC1=S", "Tyrosine-protein phosphatase non-receptor type 1 (Homo sapiens, UniProt P18031)", 86.8],
  ["COc1cc(/C=C2\\SC(=O)N(CC(=O)O)C2=O)ccc1OCc1ccccc1", "Tyrosine-protein phosphatase non-receptor type 1 (Homo sapiens, UniProt P18031)", 151],
  ["COc1cc(/C=C2\\SC(=S)N(CC(=O)O)C2=O)ccc1OCC(N)=O", "Tyrosine-protein phosphatase non-receptor type 1 (Homo sapiens, UniProt P18031)", 378]
]}

* * *

target: Tyrosine-protein phosphatase non-receptor type 1 (Homo sapiens)
test details: Mixed non-competitive inhibition of human full-length GST-fused PTP1B expressed in bacterial expression system assessed as assessed as dissociation constant of enzyme-inhibitor complex using pNPP as substrate by double reciprocal plot analysis
pKi: −log10 of the molar value.
recorded endpoint: pKi

{"columns": ["structure as smiles", "target", "endpoint result"],
 "data": [
  ["COc1cc(/C=C2\\S/C(=N\\c3ccccc3)N(CC(=O)O)C2=O)ccc1OCc1ccccc1", "Tyrosine-protein phosphatase non-receptor type 1 (Homo sapiens)", 5.12]
]}
